Biological target: T1, cynomolgus monkey (Macaca fascicularis) FGF23 (R179Q) (cynomolgus monkey (Macaca fascicularis), UniProt Q9GZV9 25-251 (human entry), limits assumed)
T1 construct: also called cynoFGF23; cynoFGF23(R179Q)
T1 chain: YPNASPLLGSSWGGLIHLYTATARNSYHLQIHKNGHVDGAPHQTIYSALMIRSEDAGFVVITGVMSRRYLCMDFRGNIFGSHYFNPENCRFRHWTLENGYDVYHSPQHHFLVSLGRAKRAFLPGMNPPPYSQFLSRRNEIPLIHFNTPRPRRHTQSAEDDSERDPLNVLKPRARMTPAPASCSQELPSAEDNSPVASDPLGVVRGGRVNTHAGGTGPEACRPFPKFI
Test: SPR, antibody captured on hIgG chip, cynoFGF23(R179Q) analyte, single cycle kinetics
measured.parameter: KD ratio (variant antibody KD/burosumab KD)
In your answer, state the number alone without any accompanying words.

| binder | measured.value |
| --- | --- |
| UGX206 (antibody, human IgG1, kappa, V domains shown, also called HC:S59E, LC:Y94E; S59E/Y94E) VH: QVQLVQSGAEVKKPGASVKVSCKASGYTFTNHYMHWVRQAPGQGLEWMGIINPISGSTENAQKFQGRVTMTRDTSTSTVYMELSSLRSEDTAVYYCARDIVDAFDFWGQGTMVTVSS VL: AIQLTQSPSSLSASVGDRVTITCRASQGISSALVWYQQKPGKAPKLLIYDASSLESGVPSRFSGSGSGTDFTLTISSLQPEDFATYYCQQFNDEFTFGPGTKVDIKR | 3 |
| UGX203 (antibody, human IgG1, kappa, V domains shown, also called HC:S59E, LC:S52D; S59E/S52D) VH: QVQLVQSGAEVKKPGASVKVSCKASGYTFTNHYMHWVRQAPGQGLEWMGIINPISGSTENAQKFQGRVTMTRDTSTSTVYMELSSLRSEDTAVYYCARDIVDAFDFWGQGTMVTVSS VL: AIQLTQSPSSLSASVGDRVTITCRASQGISSALVWYQQKPGKAPKLLIYDADSLESGVPSRFSGSGSGTDFTLTISSLQPEDFATYYCQQFNDYFTFGPGTKVDIKR | 1 |
| UGX201 (antibody, human IgG1, kappa, V domains shown, also called HC:S59E, LC:N92F; S59E/N92F) VH: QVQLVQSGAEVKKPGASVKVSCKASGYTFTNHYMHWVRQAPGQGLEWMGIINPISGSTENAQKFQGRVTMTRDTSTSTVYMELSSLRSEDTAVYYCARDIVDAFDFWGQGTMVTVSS VL: AIQLTQSPSSLSASVGDRVTITCRASQGISSALVWYQQKPGKAPKLLIYDASSLESGVPSRFSGSGSGTDFTLTISSLQPEDFATYYCQQFFDYFTFGPGTKVDIKR | 2 |
| UGX182 (antibody, human IgG1, kappa, V domains shown, also called HC:S59D, HC:V101I; S59D/V101I) VH: QVQLVQSGAEVKKPGASVKVSCKASGYTFTNHYMHWVRQAPGQGLEWMGIINPISGSTDNAQKFQGRVTMTRDTSTSTVYMELSSLRSEDTAVYYCARDIIDAFDFWGQGTMVTVSS VL: AIQLTQSPSSLSASVGDRVTITCRASQGISSALVWYQQKPGKAPKLLIYDASSLESGVPSRFSGSGSGTDFTLTISSLQPEDFATYYCQQFNDYFTFGPGTKVDIKR | 1 |

So what does the record say about KD ratio (variant antibody KD/burosumab KD) for UGX144 (antibody, human IgG1, kappa, V domains shown, also called LC:Y94D; Y94D) VH: QVQLVQSGAEVKKPGASVKVSCKASGYTFTNHYMHWVRQAPGQGLEWMGIINPISGSTSNAQKFQGRVTMTRDTSTSTVYMELSSLRSEDTAVYYCARDIVDAFDFWGQGTMVTVSS VL: AIQLTQSPSSLSASVGDRVTITCRASQGISSALVWYQQKPGKAPKLLIYDASSLESGVPSRFSGSGSGTDFTLTISSLQPEDFATYYCQQFNDDFTFGPGTKVDIKR ?
3

Now the binder UGX205 (antibody, human IgG1, kappa, V domains shown, also called HC:S59E, LC:Y94D; S59E/Y94D) VH: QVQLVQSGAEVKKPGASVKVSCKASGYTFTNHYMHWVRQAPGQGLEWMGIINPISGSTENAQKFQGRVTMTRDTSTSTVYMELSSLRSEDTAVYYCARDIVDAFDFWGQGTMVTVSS VL: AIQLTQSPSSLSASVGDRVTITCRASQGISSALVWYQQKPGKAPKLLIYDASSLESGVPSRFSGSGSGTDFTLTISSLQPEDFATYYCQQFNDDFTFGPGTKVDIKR
9
